molecular target: human LXRα (Homo sapiens)
endpoint.label: IC50 (µM)
A number alone suffices; assume µM.

Cc1nc(-c2cc(Oc3cccc(S(C)(=O)=O)c3)ccc2Cl)c2cccc(C(F)(F)F)c2n1 [Example 58] = 1.36

Form field: reported IC50 of CCS(=O)(=O)c1cccc(Oc2cccc(-c3ncnc4c(C(F)(F)F)cccc34)c2)c1 [Example 5]
1.57

====

Target: human LXRα (Homo sapiens, UniProt Q13133)
Sequence (Q13133 1-447): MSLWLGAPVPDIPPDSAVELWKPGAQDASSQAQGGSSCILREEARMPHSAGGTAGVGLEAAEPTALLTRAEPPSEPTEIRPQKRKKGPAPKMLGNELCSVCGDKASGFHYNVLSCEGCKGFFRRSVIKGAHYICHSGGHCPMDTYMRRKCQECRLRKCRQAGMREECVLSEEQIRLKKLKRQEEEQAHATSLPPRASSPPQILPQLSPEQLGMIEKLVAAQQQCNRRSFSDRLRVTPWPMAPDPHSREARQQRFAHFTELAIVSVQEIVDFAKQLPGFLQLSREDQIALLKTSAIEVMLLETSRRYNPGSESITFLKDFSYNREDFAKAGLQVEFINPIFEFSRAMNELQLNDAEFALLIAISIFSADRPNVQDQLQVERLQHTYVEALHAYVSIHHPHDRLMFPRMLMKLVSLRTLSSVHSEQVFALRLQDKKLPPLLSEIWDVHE
endpoint.label: IC50

Form field: reported IC50 of CC(C)CCS(=O)(=O)c1cccc(Oc2cccc(-c3ncnc4c(C(F)(F)F)cccc34)c2)c1 [Example 17]
> 1000 nM

Then this compound: CCCc1nc(-c2cccc(-c3cccc(S(C)(=O)=O)c3)c2)c2cccc(C(F)(F)F)c2n1 [Example 41]
> 1000 nM

Then this compound: CCS(=O)(=O)c1ccc(Oc2cccc(-c3ncnc4c(C(F)(F)F)cccc34)c2)cc1 [Example 11]
> 1000 nM

Sourced from patent US20100273816A1
